# Test system: T24
# method summary: Cell viability analysis, bladder cancer T24
# Type: cell-based, human
# assay conditions: Homo sapiens, T-24, 72 h; T24; repeated experiment; read-out: The results of antibiotic drug inhibiting cancer cell lines (cell viability analysis), T24
Where a name gives a salt, the structure may show the parent alone.
# maps each entry to its viability at 10 µM
Give the quantity in %, number only.

# molecule, viability at 10 µM [%]
data = [
    ("CC(C)(C)CC(C)(C)c1ccc(O)c(Cc2ccc(Cl)cc2Cl)c1", 90.8),
    ("NC(=O)N/N=C/c1ccc([N+](=O)[O-])o1", 87.4),
    ("CC(C)/N=c1\\cc2n(-c3ccc(Cl)cc3)c3ccccc3nc-2cc1Nc1ccc(Cl)cc1", 74.1),
    ("CC(C)CN(C[C@@H](O)[C@H](Cc1ccccc1)NC(=O)O[C@H]1CCOC1)S(=O)(=O)c1ccc(N)cc1", 90.5),
    ("CN(C)CCC=C1c2ccccc2CCc2ccccc21 [Amitriptyline HCl]", 97.5),
]

Record request: viability at 10 µM value, item `CC(C)c1nc(N(C)S(C)(=O)=O)nc(-c2ccc(F)cc2)c1/C=C/[C@@H](O)C[C@@H](O)CC(=O)O`
75.9

Field request: viability at 10 µM | item: CCc1cc2c(cc1CC)CC(NC[C@H](O)c1ccc(O)c3[nH]c(=O)ccc13)C2 [Indacaterol Maleate]
122

---

Counter-ions that a name gives are not always drawn.
Each entry below carries its measured viability, system: HCT116 (p53+) (Colorectal Carcinoma).
Reply numerically in %, unit not repeated.

# compound, unit symbol, recorded value
measured = [
    ("CC1(C)[C@@H](O[C@H]2O[C@H](C(=O)O)[C@@H](O)[C@H](O)[C@H]2O[C@@H]2O[C@H](C(=O)O)[C@@H](O)[C@H](O)[C@H]2O)CC[C@]2(C)[C@H]3C(=O)C=C4[C@@H]5C[C@@](C)(C(=O)O)CC[C@]5(C)CC[C@@]4(C)[C@]3(C)CC[C@@H]12 [Ammonium Glycyrrhizinate (AMGZ), Ammonium Glycyrrhizinate]", "%", 93.4),
    ("CC1(C)S[C@@H]2[C@H](NC(=O)[C@H](N)c3ccc(O)cc3)C(=O)N2[C@H]1C(=O)[O-].[Na+] [Amoxicillin sodium (Amox), Amoxicillin sodium]", "%", 112),
]

Reported viability for HCT116 (p53+) (Colorectal Carcinoma), given `CC(C)(C)CC(C)(C)c1ccc(O)c(Cc2ccc(Cl)cc2Cl)c1` ?
76.6

viability of CN(C)CCC[C@@]1(c2ccc(F)cc2)OCc2cc(C#N)ccc21 [Escitalopram oxalate] on HCT116 (p53+) (Colorectal Carcinoma)?
123

// fetch HCT116 (p53+) (Colorectal Carcinoma) viability for `CS(=O)(=O)c1ccc([C@@H](O)[C@@H](CO)NC(=O)C(Cl)Cl)cc1`
150

Value wanted: viability (HCT116 (p53+) (Colorectal Carcinoma)) of entry CC1(C)S[C@@H]2[C@H](NC(=O)Cc3ccccc3)C(=O)N2[C@H]1C(=O)O [Benzylpenicillin sodium]
94

Can you look up viability on HCT116 (p53+) (Colorectal Carcinoma) for `Cc1cc(C2CCCCC2)n(O)c(=O)c1.NCCO` ?
29.5

// map COc1c(C)c2c(c(O)c1C/C=C(\C)CCC(=O)O)C(=O)OC2 [Mycophenolic (Mycophenolate), Mycophenolic] to recorded viability (system: HCT116 (p53+) (Colorectal Carcinoma))
43.1

For HCT116 (p53+) (Colorectal Carcinoma), provide viability of CN[C@H](CC(C)C)C(=O)N[C@H]1C(=O)N[C@@H](CC(N)=O)C(=O)N[C@H]2C(=O)N[C@H]3C(=O)N[C@H](C(=O)N[C@H](C(=O)O)c4cc(O)cc(O)c4-c4cc3ccc4O)[C@H](O)c3ccc(c(Cl)c3)Oc3cc2cc(c3O[C@@H]2O[C@H](CO)[C@@H](O)[C@H](O)[C@H]2O[C@H]2C[C@](C)(N)[C@H](O)[C@H](C)O2)Oc2ccc(cc2Cl)[C@H]1O.Cl [Vancomycin HCl (Vancocin)] please.
94.8
